Assay method text: Stability in rat liver microsomes assessed as intrinsic clearance at 1 uM incubated for 30 mins by LC-MS/MS analysis
Type: ADME, Microsome
Reported conditions: read-out: CLH
Measured parameter: microsomal CLint at 1 µM (µL/min/mg)

Smiles text	Value observed
C[C@@H]1COCCN1c1nc(N2CCOC[C@@H]2C)nc2sc(-c3cc[nH]n3)nc12	42

1. C[C@@H]1COCCN1c1nc(N2CCOCC2)nc2sc(-c3cc[nH]n3)nc12
2. C[C@@H]1COCCN1c1nc(N2CCCOCC2)nc2sc(-c3cc[nH]n3)nc12
Parameter metric = microsomal CLint at 1 µM. Return the lower-valued option from 1 and 2 . I would appreciate it if you answered with the label of your choice.
1

A. C[C@@H]1COCCN1c1nc(C2CCOCC2)nc2sc(-c3cc[nH]n3)nc12
B. C[C@@H]1COCCN1c1ncnc2sc(-c3cc[nH]n3)nc12
Would you let me know which has the greater microsomal CLint at 1 µM value, A or B ? I would appreciate it if you answered with the label of your choice.
B
(B: 100 µL/min/mg, A: 37 µL/min/mg)

====

Assay method text: Ratio of drug concentration in brain to plasma in C57BL/6 mouse at 1 mg/kg, iv incubated for 2 hrs by LC-MS/MS analysis
Type: ADME, organism-based
Reported conditions: read-out: BPR
Measured parameter: Kp at 2 h
Enter a number only.

Briefly, Kp at 2 h measured for C[C@@H]1COCCN1c1nc(N2CCOC[C@@H]2C)nc2sc(-c3cc[nH]n3)nc12 : 1.2

====

Assay method text: Volume of distribution at steady state in Sprague-Dawley rat at 1 mg/kg, iv or 3 mg/kg, po by HPLC analysis
Type: ADME, organism-based
Reported conditions: in vivo, read-out: Vdss
Measured parameter: Vd (L/kg)
Give the value, in units of L/kg, as a plain number.

Briefly, Vd measured for C[C@@H]1COCCN1c1nc(N2CCOC[C@@H]2C)nc2sc(-c3cc[nH]n3)nc12 : 2.6

====

Subject of test: Serine/threonine-protein kinase mTOR (Mus musculus)
Assay method text: Inhibition of mTOR in mouse MEF cells harboring TSC1 deletion mutant assessed as reduction in PS6 phosphorylation incuabted for 2 hrs alexa fluor 594 and Hoechst staining based fluorescence assay
Assay type: cell-based
Measured parameter: IC50 (µM)

Reference set (6 entries):
Smiles text	IC50, µM
C[C@@H]1COCCN1c1nc(N2CCOC[C@@H]2C)nc2sc(-c3cn[nH]c3)nc12	0.056
C[C@@H]1COCCN1c1nc(N2CCCOCC2)nc2sc(-c3cc[nH]n3)nc12	0.0027
C[C@@H]1COCCN1c1nc(N2CCN(C)CC2)nc2sc(-c3cc[nH]n3)nc12	0.134
C[C@@H]1COCCN1c1ncnc2sc(-c3cc[nH]n3)nc12	0.603
CC(C)c1nc(N2CCOC[C@H]2C)c2nc(-c3cc[nH]n3)sc2n1	0.0037
C[C@@H]1COCCN1c1nc(N2CCOC[C@@H]2C)nc2sc(-c3cccc4[nH]ccc34)nc12	0.305

1. C[C@@H]1COCCN1c1nc(CN2CCOCC2)nc2sc(-c3cc[nH]n3)nc12
2. C[C@@H]1COCCN1c1nc(N2CCOC[C@@H]2C)nc2sc(-c3cccc(O)c3)nc12
Parameter metric = IC50. Return the lower-valued option from 1 and 2 . I would appreciate it if you answered with the label of your choice.
1

====

Subject of test: Serine/threonine-protein kinase mTOR (Rattus norvegicus, UniProt P42346, S2215F)
Sequence (P42346 whole entry S2215F, looked up): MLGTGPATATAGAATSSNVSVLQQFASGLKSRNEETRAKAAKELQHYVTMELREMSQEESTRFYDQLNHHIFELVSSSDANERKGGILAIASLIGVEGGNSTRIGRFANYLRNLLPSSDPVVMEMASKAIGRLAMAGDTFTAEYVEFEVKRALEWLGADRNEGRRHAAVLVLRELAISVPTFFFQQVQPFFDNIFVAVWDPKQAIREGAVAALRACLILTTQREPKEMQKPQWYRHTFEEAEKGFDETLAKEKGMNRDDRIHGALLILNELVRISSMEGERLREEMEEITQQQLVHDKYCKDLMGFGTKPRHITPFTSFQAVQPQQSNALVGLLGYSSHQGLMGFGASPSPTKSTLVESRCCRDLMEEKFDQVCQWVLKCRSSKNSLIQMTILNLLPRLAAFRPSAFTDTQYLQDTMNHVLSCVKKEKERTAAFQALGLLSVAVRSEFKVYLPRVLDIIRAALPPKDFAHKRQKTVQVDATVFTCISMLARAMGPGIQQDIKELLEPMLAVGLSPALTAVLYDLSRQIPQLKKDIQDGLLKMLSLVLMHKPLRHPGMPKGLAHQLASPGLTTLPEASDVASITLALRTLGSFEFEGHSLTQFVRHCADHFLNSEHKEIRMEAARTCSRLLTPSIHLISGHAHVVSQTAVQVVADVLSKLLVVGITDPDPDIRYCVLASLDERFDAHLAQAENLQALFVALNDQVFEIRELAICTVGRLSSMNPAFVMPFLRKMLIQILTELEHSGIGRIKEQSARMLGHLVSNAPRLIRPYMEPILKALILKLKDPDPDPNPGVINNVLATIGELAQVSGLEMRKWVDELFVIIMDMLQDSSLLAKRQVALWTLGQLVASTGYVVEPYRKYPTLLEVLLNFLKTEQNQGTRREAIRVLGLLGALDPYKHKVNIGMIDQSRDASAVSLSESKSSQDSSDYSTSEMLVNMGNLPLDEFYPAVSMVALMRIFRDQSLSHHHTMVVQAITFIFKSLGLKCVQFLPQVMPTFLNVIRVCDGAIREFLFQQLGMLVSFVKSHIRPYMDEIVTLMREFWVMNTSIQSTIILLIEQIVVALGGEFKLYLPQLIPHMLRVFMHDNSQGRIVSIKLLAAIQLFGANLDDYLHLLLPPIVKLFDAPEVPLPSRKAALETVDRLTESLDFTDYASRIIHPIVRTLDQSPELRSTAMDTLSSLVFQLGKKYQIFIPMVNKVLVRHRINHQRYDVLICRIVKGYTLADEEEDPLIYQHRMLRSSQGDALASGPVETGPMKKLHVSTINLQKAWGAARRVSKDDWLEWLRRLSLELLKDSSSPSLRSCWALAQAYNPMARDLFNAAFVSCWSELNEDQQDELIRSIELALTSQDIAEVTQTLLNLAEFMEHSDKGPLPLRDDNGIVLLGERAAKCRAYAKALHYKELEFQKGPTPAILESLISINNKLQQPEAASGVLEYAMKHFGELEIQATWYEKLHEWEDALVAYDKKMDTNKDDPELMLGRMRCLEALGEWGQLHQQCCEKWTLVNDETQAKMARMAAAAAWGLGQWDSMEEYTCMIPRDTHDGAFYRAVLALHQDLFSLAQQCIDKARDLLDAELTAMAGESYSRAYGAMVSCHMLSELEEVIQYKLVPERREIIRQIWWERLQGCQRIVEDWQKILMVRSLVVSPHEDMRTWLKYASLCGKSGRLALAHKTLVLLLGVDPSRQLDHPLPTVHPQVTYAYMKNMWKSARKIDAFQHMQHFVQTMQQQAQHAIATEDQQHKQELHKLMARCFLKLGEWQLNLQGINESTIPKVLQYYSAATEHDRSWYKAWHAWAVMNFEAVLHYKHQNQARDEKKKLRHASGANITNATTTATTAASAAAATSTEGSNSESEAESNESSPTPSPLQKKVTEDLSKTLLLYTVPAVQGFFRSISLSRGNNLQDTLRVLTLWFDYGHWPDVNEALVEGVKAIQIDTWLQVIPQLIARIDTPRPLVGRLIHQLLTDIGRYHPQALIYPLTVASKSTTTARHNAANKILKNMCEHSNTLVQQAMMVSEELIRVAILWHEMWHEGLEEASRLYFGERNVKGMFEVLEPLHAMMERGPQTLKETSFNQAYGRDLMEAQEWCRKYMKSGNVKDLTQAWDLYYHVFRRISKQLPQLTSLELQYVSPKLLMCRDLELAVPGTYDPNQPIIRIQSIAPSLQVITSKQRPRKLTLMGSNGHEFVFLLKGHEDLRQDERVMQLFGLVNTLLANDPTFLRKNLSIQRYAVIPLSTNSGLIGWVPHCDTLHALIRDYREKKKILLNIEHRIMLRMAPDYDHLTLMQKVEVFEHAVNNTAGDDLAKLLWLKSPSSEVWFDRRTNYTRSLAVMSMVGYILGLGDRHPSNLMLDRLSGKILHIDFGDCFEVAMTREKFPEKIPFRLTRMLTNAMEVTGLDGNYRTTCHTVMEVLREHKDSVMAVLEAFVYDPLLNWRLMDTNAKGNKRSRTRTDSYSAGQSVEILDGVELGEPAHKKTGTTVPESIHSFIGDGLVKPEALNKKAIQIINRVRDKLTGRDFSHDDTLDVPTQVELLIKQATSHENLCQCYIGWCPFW
Assay method text: Inhibition of mTOR S2215F mutant in rat primary cortical neuron assessed as reduction in PS6 phosphorylation incubated for 4 hrs by Western blot analysis (reference value: 19 nM)
Measured parameter: pIC50
Please report pIC50 as the negative decimal logarithm of the molar concentration, giving only the number.

Briefly, pIC50 measured for C[C@@H]1COCCN1c1nc(N2CCOC[C@@H]2C)nc2sc(-c3cc[nH]n3)nc12 : 7.77

====

Assay method text: Ratio of drug concentration in brain to plasma in Sprague-Dawley rat at 3 mg/kg, po incubated for 1 hr by LC-MS/MS analysis
Type: ADME, organism-based
Reported conditions: read-out: BPR
Measured parameter: Kp at 1 h
Enter a number only.

Briefly, Kp at 1 h measured for C[C@@H]1COCCN1c1nc(N2CCOC[C@@H]2C)nc2sc(-c3cc[nH]n3)nc12 : 4

====

Assay method text: Tmax in Sprague-Dawley rat at 1 mg/kg, iv or 3 mg/kg, po by HPLC analysis
Assay type: ADME, organism-based
Reported conditions: in vivo
Measured parameter: Tmax (h)
Give the value, in units of h, as a plain number.

Briefly, Tmax measured for C[C@@H]1COCCN1c1nc(N2CCOC[C@@H]2C)nc2sc(-c3cc[nH]n3)nc12 : 1.5

====

Assay method text: Protein binding in Sprague-Dawley rat brain homogenate at 5 uM incubated for 4 hrs by LC-MS/MS analysis
Type: ADME, tissue-based
Reported conditions: read-out: PB (converted)
Measured parameter: fraction unbound at 4 h, 5 µM
Enter a number only.

Briefly, fraction unbound at 4 h, 5 µM measured for C[C@@H]1COCCN1c1nc(N2CCOC[C@@H]2C)nc2sc(-c3cc[nH]n3)nc12 : 0.004

====

Assay method text: AUC (0 to t) in Sprague-Dawley rat at 3 mg/kg, po by HPLC analysis
Type: ADME, organism-based
Reported conditions: in vivo
Measured parameter: AUC(0-t) (µM·h)
Give the value, in units of µM·h, as a plain number.

Briefly, AUC(0-t) measured for C[C@@H]1COCCN1c1nc(N2CCOC[C@@H]2C)nc2sc(-c3cc[nH]n3)nc12 : 10.5

====

Assay method text: Ratio of drug concentration in brain to plasma in C57BL/6 mouse at 1 mg/kg, iv incubated for 7 hrs by LC-MS/MS analysis
Assay type: ADME, organism-based
Reported conditions: read-out: BPR
Measured parameter: Kp at 7 h
Enter a number only.

Briefly, Kp at 7 h measured for C[C@@H]1COCCN1c1nc(N2CCOC[C@@H]2C)nc2sc(-c3cc[nH]n3)nc12 : 1.2

====

Assay method text: MRT (0 to t) in C57BL/6 mouse at 1 mg/kg, iv or 5 mg/kg, po by HPLC analysis
Type: ADME, organism-based
Reported conditions: in vivo
Measured parameter: MRT last (h)
Give the value, in units of h, as a plain number.

Briefly, MRT last measured for C[C@@H]1COCCN1c1nc(N2CCOC[C@@H]2C)nc2sc(-c3cc[nH]n3)nc12 : 2.6

====

Assay method text: Half life in C57BL/6 mouse at 1 mg/kg, iv or 5 mg/kg, po by HPLC analysis
Type: ADME, organism-based
Reported conditions: in vivo
Measured parameter: half-life (h)
Give the value, in units of h, as a plain number.

Briefly, half-life measured for C[C@@H]1COCCN1c1nc(N2CCOC[C@@H]2C)nc2sc(-c3cc[nH]n3)nc12 : 4.3

====

Assay method text: Stability in dog liver microsomes assessed as intrinsic clearance
Assay type: ADME, Canis lupus familiaris, Microsome
Reported conditions: read-out: CLH
Measured parameter: microsomal CLint (µL/min/mg)
Give the value, in units of µL/min/mg, as a plain number.

Briefly, microsomal CLint measured for C[C@@H]1COCCN1c1nc(N2CCOC[C@@H]2C)nc2[nH]c(-c3cccc4[nH]ccc34)nc12 : 60

====

Assay method text: Drug uptake in C57BL/6J mouse plasma at 10 mg/kg, po incubated for 3 hrs by LC-MS/MS analysis
Format: ADME, organism-based
Measured parameter: concentration at 3 h (µM)
Give the value, in units of µM, as a plain number.

Briefly, concentration at 3 h measured for C[C@@H]1COCCN1c1nc(N2CCOC[C@@H]2C)nc2sc(-c3cc[nH]n3)nc12 : 4.47

====

Assay method text: AUC (0 to t) in C57BL/6 mouse at 5 mg/kg, po by HPLC analysis
Format: ADME, organism-based
Reported conditions: in vivo
Measured parameter: AUC(0-t) (µM·h)
Give the value, in units of µM·h, as a plain number.

Briefly, AUC(0-t) measured for C[C@@H]1COCCN1c1nc(N2CCOC[C@@H]2C)nc2sc(-c3cc[nH]n3)nc12 : 14.9

====

Assay method text: Drug uptake in C57BL/6J mouse brain at 1 mg/kg, po incubated for 3 hrs by LC-MS/MS analysis
Format: ADME, organism-based
Reported conditions: read-out: Drug uptake
Measured parameter: concentration at 3 h (µM)
Give the value, in units of µM, as a plain number.

Briefly, concentration at 3 h measured for C[C@@H]1COCCN1c1nc(N2CCOC[C@@H]2C)nc2sc(-c3cc[nH]n3)nc12 : 0.929

====

Assay method text: Cmax in C57BL/6 mouse at 1 mg/kg, iv or 5 mg/kg, po by HPLC analysis
Format: ADME, organism-based
Reported conditions: in vivo
Measured parameter: Cmax (nM)
Give the value, in units of nM, as a plain number.

Briefly, Cmax measured for C[C@@H]1COCCN1c1nc(N2CCOC[C@@H]2C)nc2sc(-c3cc[nH]n3)nc12 : 2700
